- test.target: TrufOBP4
- assay.notes: Fluorescence competitive binding assay (displacement of 1-NPN)
- recorded.conditions: Ki = IC50/(1 + [1-NPN]/K1-NPN); 2 μM protein, 50 mM Tris-HCl pH 7.4
Kindly state Ki for each of the entries shown.
Only the number, expressed in µM, is required.

Give recorded Ki with TrufOBP4 for the following molecule: CC1=CCC2C(C1)C2(C)C (stereo not shown) 19.5

Give recorded Ki with TrufOBP4 for the following molecule: CCC=CCCOC(C)=O [3-Hexenyl acetate] 40.6

Give recorded Ki with TrufOBP4 for the following molecule: C=Cc1ccccc1 36.2

Give recorded Ki with TrufOBP4 for the following molecule: C=C(C)[C@@H]1CC=C(C)CC1 [(S)-(−)-Limonene] 29.1

Give recorded Ki with TrufOBP4 for the following molecule: C=C1CCC2CC1C2(C)C (stereo not shown) 29

====

- test.target: TrufOBP4
- assay.notes: Fluorescence competitive binding assay (displacement of 1-NPN)
- recorded.conditions: Ki = IC50/(1 + [1-NPN]/K1-NPN); 2 μM protein, 50 mM Tris-HCl pH 7.4
parameter.measured: log10(Ki) (log10 of the value in µM)
In plain terms, each number is the log10 of measured Ki in µM.

Give recorded log10(Ki) with TrufOBP4 for the following compound: CCCCC(CC)CO (stereo not drawn) 1.32

Give recorded log10(Ki) with TrufOBP4 for the following compound: CCC(C)C(=O)OCCC(C)C (stereo not drawn) [3-Methylbutyl 2-methylbutanoate] 1.66

Give recorded log10(Ki) with TrufOBP4 for the following compound: C=CC(=C)CCC=C(C)C 1.24

Give recorded log10(Ki) with TrufOBP4 for the following compound: CCCCC(CC)COC(=O)C=Cc1ccc(OC)cc1 (stereo not drawn) [Octyl methoxycinnamate] 0.06

Give recorded log10(Ki) with TrufOBP4 for the following compound: CCCCOC(=O)c1ccccc1C(=O)OCCCC [Dibutyl phthalate] 0.66

Give recorded log10(Ki) with TrufOBP4 for the following compound: CC(=O)OCCC(C)C [Isoanyl acetate] 1.32

Give recorded log10(Ki) with TrufOBP4 for the following compound: C=C(C)[C@H]1CC=C(C)CC1 [(R)-(+)-limonene] 1.34

Give recorded log10(Ki) with TrufOBP4 for the following compound: CCCCCCCCCCCCCC(=O)O 0.55

Give recorded log10(Ki) with TrufOBP4 for the following compound: CCCCCCCCCCCCCCCC(=O)O 0.72

====

- test.target: TrufOBP4
- assay.notes: Binding of fluorescent reporter 1-NPN (titration, Scatchard plot)
- recorded.conditions: 2 μM protein titrated with 2 to 20 μM 1-NPN; read-out: K1-NPN (dissociation constant of 1-NPN)
parameter.measured: Kd (µM)
Only the number, expressed in µM, is required.

Give recorded Kd with TrufOBP4 for the following compound: c1ccc(Nc2cccc3ccccc23)cc1 6.79

====

Kindly state Ki for each of the entries shown.
- test.target: TrufOBP4
- assay.notes: Fluorescence competitive binding assay (displacement of 1-NPN)
- recorded.conditions: Ki = IC50/(1 + [1-NPN]/K1-NPN); 2 μM protein, 50 mM Tris-HCl pH 7.4

Query: Ki; subject: C=C(C)[C@H]1CC=C(C)CC1 [Cinene] > 50 µM

Query: Ki; subject: CCCCCCOC(C)=O [Hexyl acetate] > 50 µM

Query: Ki; subject: COC(=O)c1ccccc1O [Methyl salicylate] > 50 µM
